Recorded Mean IC50 (nM), CD4+ T cell proliferation for the following binders
- MEASURED_ON: T1, full-length human CD86 on HEK293 cells (human, UniProt P42081 24-329)
- T1 sequence: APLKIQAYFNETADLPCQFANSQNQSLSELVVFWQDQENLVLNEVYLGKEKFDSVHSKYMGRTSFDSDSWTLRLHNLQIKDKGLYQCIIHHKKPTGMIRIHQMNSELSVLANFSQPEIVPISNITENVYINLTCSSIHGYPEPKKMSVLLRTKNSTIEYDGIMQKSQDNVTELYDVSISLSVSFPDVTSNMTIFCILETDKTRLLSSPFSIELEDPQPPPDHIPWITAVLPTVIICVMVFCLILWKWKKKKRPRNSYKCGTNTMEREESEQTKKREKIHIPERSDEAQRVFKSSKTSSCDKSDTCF
- EXPERIMENTAL_PROTOCOL: cell-based or functional assay
Kindly answer with a numeric value in nM, unit omitted.

BINDER	UNITS_SYMBOL	RECORDED_RESULT
D3-62-IgG2 (Fc fusion) MHVAQPAVVLASSRGIASFVCEYASPGKANEIRVTVLRQADSQVTEVCAMTYMKEDELTFLDDPSCTGTFSGNQVNLTIQGLRAMDTGLYICKVELMYPPPYYLGIGNGTQIYVIDPEPCPDSDERKCCVECPPCPAPPVAGPSVFLFPPKPKDTLMISRTPEVTCVVVDVSHEDPEVQFNWYVDGVEVHNAKTKPREEQFNSTFRVVSVLTVVHQDWLNGKEYKCKVSNKGLPAPIEKTISKTKGQPREPQVYTLPPSREEMTKNQVSLTCLVKGFYPSDIAVEWESNGQPENNYKTTPPMLDSDGSFFLYSKLTVDKSRWQQGNVFSCSVMHEALHNHYTQKSLSLSPG	nM	0.04

Okay, next one:
Requested read-out: Mean IC50 (nM), CD4+ T cell proliferation. Entry: D3-11-IgG2 (Fc fusion) MHVAQPAVVLASSRGIASFVCEYESPGKANEIRVTVLRQAGSQVTEVCAMTYMKGDELTFLDDPSCTGTFSGNQVNLTIQGLRAMDTGLYICKVELMYPPPYYLGFGNGTQIYVIDPEPCPDSDERKCCVECPPCPAPPVAGPSVFLFPPKPKDTLMISRTPEVTCVVVDVSHEDPEVQFNWYVDGVEVHNAKTKPREEQFNSTFRVVSVLTVVHQDWLNGKEYKCKVSNKGLPAPIEKTISKTKGQPREPQVYTLPPSREEMTKNQVSLTCLVKGFYPSDIAVEWESNGQPENNYKTTPPMLDSDGSFFLYSKLTVDKSRWQQGNVFSCSVMHEALHNHYTQKSLSLSPG 0.03
